Measured values drawn from patent US8524750B2 for this set.

TEST TARGET: Mycobacterium tuberculosis InhA (Mycobacterium tuberculosis, UniProt P9WGR1)
Construct: made in house; host or cells: E. coli
Sequence (P9WGR1 whole entry, looked up): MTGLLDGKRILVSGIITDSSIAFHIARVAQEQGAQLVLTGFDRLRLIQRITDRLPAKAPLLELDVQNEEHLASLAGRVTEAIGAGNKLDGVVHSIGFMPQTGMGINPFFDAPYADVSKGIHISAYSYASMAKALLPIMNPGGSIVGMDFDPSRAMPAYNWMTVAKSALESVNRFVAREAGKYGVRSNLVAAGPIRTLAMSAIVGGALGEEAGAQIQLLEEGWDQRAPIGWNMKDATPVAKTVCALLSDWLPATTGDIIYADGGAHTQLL
ASSAY TEXT: Mycobacterium tuberculosis InhA Inhibition Assay (Enzyme Assay)
Format: biochemical
MEASUREMENT CONTEXT: 5 nM InhA, 50 μM DDCoA, 50 μM NADH, PIPES buffer pH 6.8; initial velocities of NADH consumption; read-out: IC50 value

- COMPOUND: "Cc1cc(C)n(C(C)c2nnc(Nc3ccn(Cc4cccc(F)c4F)n3)s2)n1 (stereo not shown)"
  TEST TARGET: "Mycobacterium tuberculosis InhA (Mycobacterium tuberculosis, UniProt P9WGR1)"
  IC50: "< 120 nM"
- COMPOUND: "Cc1cc(C)n(C(C)c2nnc(Nc3ccn(Cc4cc(N)ccc4Cl)n3)s2)n1 (stereo not shown)"
  TEST TARGET: "Mycobacterium tuberculosis InhA (Mycobacterium tuberculosis, UniProt P9WGR1)"
  IC50: "< 117 nM"
- COMPOUND: "Cc1ccn(C(C)c2nnc(Nc3ccn(Cc4cccc(Cl)c4F)n3)s2)n1 (stereo not shown)"
  TEST TARGET: "Mycobacterium tuberculosis InhA (Mycobacterium tuberculosis, UniProt P9WGR1)"
  IC50: "< 120 nM"
- COMPOUND: "Cc1cc(C)n(C(C)c2nnc(Nc3ccn(Cc4cc(F)ccc4Cl)n3)s2)n1 (stereo not shown)"
  TEST TARGET: "Mycobacterium tuberculosis InhA (Mycobacterium tuberculosis, UniProt P9WGR1)"
  IC50: "< 116 nM"
- COMPOUND: "Cc1ccn(Cc2nnc(Nc3ccn(Cc4ccccc4)n3)s2)n1"
  TEST TARGET: "Mycobacterium tuberculosis InhA (Mycobacterium tuberculosis, UniProt P9WGR1)"
  IC50: "285 to 1420 nM"
- COMPOUND: "Cc1cc(C(F)F)nn1C(C)c1nnc(Nc2ccn(Cc3ccccc3)n2)s1 (stereo not shown)"
  TEST TARGET: "Mycobacterium tuberculosis InhA (Mycobacterium tuberculosis, UniProt P9WGR1)"
  IC50: "< 120 nM"
- COMPOUND: "Cc1csc(C(C)(O)c2nnc(Nc3ccn(Cc4cccc(N)c4F)n3)s2)n1 (stereo not shown)"
  TEST TARGET: "Mycobacterium tuberculosis InhA (Mycobacterium tuberculosis, UniProt P9WGR1)"
  IC50: "< 116 nM"
- COMPOUND: "Cc1csc(C(C)c2nnc(Nc3ccn(Cc4cccc(C)c4F)n3)s2)n1 (stereo not shown)"
  TEST TARGET: "Mycobacterium tuberculosis InhA (Mycobacterium tuberculosis, UniProt P9WGR1)"
  IC50: "< 121 nM"
- COMPOUND: "Cc1cc(C(F)F)nn1C(C)c1nnc(Nc2ccn(Cc3ccccc3Cl)n2)s1 (stereo not shown)"
  TEST TARGET: "Mycobacterium tuberculosis InhA (Mycobacterium tuberculosis, UniProt P9WGR1)"
  IC50: "< 111 nM"
- COMPOUND: "Cc1csc(C(C)c2nnc(Nc3ccn(Cc4c(F)cccc4Cl)n3)s2)n1 (stereo not shown)"
  TEST TARGET: "Mycobacterium tuberculosis InhA (Mycobacterium tuberculosis, UniProt P9WGR1)"
  IC50: "< 115 nM"
- COMPOUND: "Cc1cc(C)n([C@H](C)c2nnc(Nc3ccn(Cc4c(F)cccc4Cl)n3)s2)n1 (single isomer, unassigned)"
  TEST TARGET: "Mycobacterium tuberculosis InhA (Mycobacterium tuberculosis, UniProt P9WGR1)"
  IC50: "< 116 nM"
- COMPOUND: "Cc1cc(C)n(Cc2cnc(Nc3ccn(Cc4c(F)cccc4Cl)n3)s2)n1"
  TEST TARGET: "Mycobacterium tuberculosis InhA (Mycobacterium tuberculosis, UniProt P9WGR1)"
  IC50: "< 120 nM"
- COMPOUND: "Cc1ccn([C@@H](C)c2nnc(Nc3ccn(Cc4c(F)cccc4Cl)n3)s2)n1 (single isomer, unassigned)"
  TEST TARGET: "Mycobacterium tuberculosis InhA (Mycobacterium tuberculosis, UniProt P9WGR1)"
  IC50: "< 120 nM"
- COMPOUND: "CC(c1nc(C(F)(F)F)cs1)c1nnc(Nc2ccn(Cc3c(F)cccc3Cl)n2)s1 (stereo not shown)"
  TEST TARGET: "Mycobacterium tuberculosis InhA (Mycobacterium tuberculosis, UniProt P9WGR1)"
  IC50: "< 102 nM"
- COMPOUND: "Cc1ccn(C(C)c2nnc(Nc3ccn(Cc4ccccc4Cl)n3)s2)n1 (stereo not shown)"
  TEST TARGET: "Mycobacterium tuberculosis InhA (Mycobacterium tuberculosis, UniProt P9WGR1)"
  IC50: "< 125 nM"
- COMPOUND: "O=[N+]([O-])c1ccn(Cc2nnc(Nc3ccn(Cc4ccccc4Cl)n3)s2)n1"
  TEST TARGET: "Mycobacterium tuberculosis InhA (Mycobacterium tuberculosis, UniProt P9WGR1)"
  IC50: "< 120 nM"
